Target: Aurora B kinase (Homo sapiens, UniProt Q96GD4)
Construct: purchased Cell signaling
Sequence (Q96GD4 whole entry): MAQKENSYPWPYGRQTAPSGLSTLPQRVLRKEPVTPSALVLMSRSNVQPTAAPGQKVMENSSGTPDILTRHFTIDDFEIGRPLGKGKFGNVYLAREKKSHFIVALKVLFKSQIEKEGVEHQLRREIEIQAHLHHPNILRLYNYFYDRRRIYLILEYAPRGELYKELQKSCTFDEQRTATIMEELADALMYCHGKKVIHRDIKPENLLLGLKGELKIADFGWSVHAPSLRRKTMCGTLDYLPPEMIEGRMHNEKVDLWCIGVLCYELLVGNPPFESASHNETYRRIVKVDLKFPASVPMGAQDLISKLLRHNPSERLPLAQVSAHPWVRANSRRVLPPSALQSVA
Assay: Aurora B kinase assay ([γ-33P]ATP, CHOCKtide substrate)
Format: biochemical
Conditions: 1.0 μM test compound
Readout Kind: inhibition at 1 µM (%)

Compound: NS(=O)(=O)c1ccc2c(c1)/C(=C/c1[nH]c3c(c1CCC(=O)O)C(=O)CCC3)C(=O)N2 [DCB-70095]
Tested Target: Aurora B kinase (Homo sapiens, UniProt Q96GD4)
inhibition at 1 µM [%]: 34.1
//
Compound: CCOC(=O)CCc1c(/C=C2\C(=O)Nc3ccc(S(=O)(=O)Cc4c(Cl)cccc4Cl)cc32)[nH]c2c1C(=O)CC(C)(C)C2 [DCB-70158]
Tested Target: Aurora B kinase (Homo sapiens, UniProt Q96GD4)
inhibition at 1 µM [%]: 6.1
//
Compound: CCOC(=O)CCc1c(/C=C2\C(=O)Nc3ccc(NS(=O)(=O)Cc4ccccc4)cc32)[nH]c2c1C(=O)CCC2 [DCB-70197]
Tested Target: Aurora B kinase (Homo sapiens, UniProt Q96GD4)
inhibition at 1 µM [%]: 39.9
//
Compound: CCOC(=O)CCc1c(/C=C2\C(=O)Nc3ccc(S(=O)(=O)N4CCc5ccccc54)cc32)[nH]c2c1C(=O)CC(C)(C)C2 [DCB-70160]
Tested Target: Aurora B kinase (Homo sapiens, UniProt Q96GD4)
inhibition at 1 µM [%]: 6.1
//
Compound: O=C1Nc2ccc(F)cc2/C1=C/c1[nH]c2c(c1CCC(=O)N1CCOCC1)C(=O)CCC2 [DCB-70125]
Tested Target: Aurora B kinase (Homo sapiens, UniProt Q96GD4)
inhibition at 1 µM [%]: -0.1

(1) O=C(O)CCc1c(/C=C2\C(=O)Nc3ccc(NS(=O)(=O)c4ccccc4)cc32)[nH]c2c1C(=O)CCCC2 [DCB-70147]
(2) O=C(O)CCc1c(/C=C2\C(=O)Nc3ccc(NC(=O)c4ccccc4)cc32)[nH]c2c1C(=O)CCC2 [DCB-70097]
(3) CCOC(=O)CCc1c(/C=C2\C(=O)Nc3ccc(NC(=O)Nc4ccc(OC)cc4)cc32)[nH]c2c1C(=O)CCC2 [DCB-70092]
QUERY: Sort entries by inhibition at 1 µM from minimum to maximum value. Return value: ordered labels per request.
RESULT: 3, 2, 1
(3: 9.9%, 2: 14.2%, 1: 61.3%)

###

Molecular target: PDGFR-β kinase (Homo sapiens)
Construct: recombinant N-terminal 6×His-tagged PDGFR-β kinase domain construct expressed by baculovirus; 6xHis (N); made in house
Sequence (P09619 600-962 limits assumed): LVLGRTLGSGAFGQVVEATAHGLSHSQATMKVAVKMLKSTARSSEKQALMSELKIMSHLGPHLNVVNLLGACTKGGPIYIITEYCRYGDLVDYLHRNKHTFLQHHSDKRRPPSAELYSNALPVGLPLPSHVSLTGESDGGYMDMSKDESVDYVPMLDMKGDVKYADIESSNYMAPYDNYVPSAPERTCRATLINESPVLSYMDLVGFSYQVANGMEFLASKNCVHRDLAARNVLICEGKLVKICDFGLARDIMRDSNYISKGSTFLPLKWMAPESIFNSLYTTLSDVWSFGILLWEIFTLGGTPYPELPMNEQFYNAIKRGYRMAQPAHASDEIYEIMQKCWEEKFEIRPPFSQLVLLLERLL
Test: PDGFR-β kinase assay (33P incorporation into Poly(Glu-Tyr))
Format: biochemical
Settings: 500 nM test compound
Readout Kind: inhibition at 0.5 µM (%)

// known answers, use as guide
Compound: CCOC(=O)CCc1c(C=C2C(=S)Nc3cc(Br)ccc32)[nH]c2c1C(=O)CCC2 [DCB-70085]
Readout Kind: inhibition at 0.5 µM
Result: 16.5
--
Compound: O=C(O)CCc1c(/C=C2\C(=O)Nc3ccc(S(=O)(=O)N4CCCC4)cc32)[nH]c2c1C(=O)CCC2 [DCB-70087]
Readout Kind: inhibition at 0.5 µM
Result: 7.8
--
Compound: CCOC(=O)CCc1c(/C=C2\C(=O)Nc3ccc(NS(=O)(=O)c4ccccc4)cc32)[nH]c2c1C(=O)CCCC2 [DCB-70146]
Readout Kind: inhibition at 0.5 µM
Result: 19.7
--
Compound: O=C(O)CCc1c(/C=C2\C(=O)Nc3cc(-c4ccc(O)c(O)c4)ccc32)[nH]c2c1C(=O)CCC2 [DCB-70078]
Readout Kind: inhibition at 0.5 µM
Result: 85
--
Compound: O=C(O)CCc1c(C=C2C(=S)Nc3cc(Br)ccc32)[nH]c2c1C(=O)CCC2 [DCB-70086]
Readout Kind: inhibition at 0.5 µM
Result: 12.8

(1) O=C(O)CCc1c(/C=C2\C(=O)Nc3ccc(NS(=O)(=O)c4ccc(F)cc4)cc32)[nH]c2c1C(=O)CCC2 [DCB-70145]
(2) CCOC(=O)CCc1c(/C=C2\C(=O)Nc3cc(F)ccc32)[nH]c2c1C(=O)CCC2 [DCB-70122]
QUERY: Smaller inhibition at 0.5 µM value? Options are 1 and 2 Indicate your choice by writing its label.
RESULT: 1
(1: 14.5%, 2: 64.3%)
